Assay: Permeability of the compound by PAMPA
Assay type: ADME
Details: read-out: permeability
MEASUREMENT_NAME: Papp (×10⁻⁶ cm/s)

Example compounds with recorded Papp:
>>> df
                                   compound  measured_result
0  CCCC[C@H](NC(=O)[C@H](CCCCN)NC(=O)[C@H](CCCNC(=N)N)NC(=O)c1ccc(/C=C2\SC(=S)N(c3ccc(Cl)cc3)C2=O)cc1)C(N)=O             1.02
1  CCCC[C@H](NC(=O)[C@H](CCCCN)NC(=O)[C@H](CCCNC(=N)N)NC(=O)c1ccc(/C=C2\SC(=S)N(C3CCCC3)C2=O)cc1)C(N)=O             2.31
2  CCCC[C@H](NC(=O)[C@H](CCCCN)NC(=O)[C@H](CCCNC(=N)N)NC(=O)c1ccc(/C=C2\SC(=S)N(c3ccc(OC)cc3)C2=O)cc1)C(N)=O             0.59

(a) CCCC[C@H](NC(=O)[C@H](CCCCN)NC(=O)[C@H](CCCNC(=N)N)NC(=O)c1ccc(/C=C(\C#N)C(=O)NC2CC2)cc1)C(N)=O
(b) CCCC[C@H](NC(=O)[C@H](CCCCN)NC(=O)[C@H](CCCNC(=N)N)NC(=O)c1cccc(/C=C2\SC(=O)N(C3CCCC3)C2=O)c1)C(N)=O
# argmax over Papp for candidates a and b Please respond with the label that marks your chosen entry.
b

###

System: West Nile virus
Assay: Inhibition of West Nile virus NS2B-NS3 protease expressed in Escherichia coli BL 21 (DE3) using Abz-Gly-Leu-Lys-Arg-Gly-Gly-3-(NO2)Tyr as substrate at 50 uM after 15 mins
MEASUREMENT_NAME: inhibition (%)

                                   compound  measured_target  measured_result
0  O=C(O)c1ccc(/C=C2\SC(=O)N(Cc3ccccc3)C2=O)cc1  West Nile virus             22.1
1  CCCC[C@H](NC(=O)[C@H](CCCCN)NC(=O)[C@H](CCCNC(=N)N)NC(=O)c1ccc(/C=C2\NC(=S)N(c3ccccc3)C2=O)cc1)C(N)=O  West Nile virus             44.1
2  CCCC[C@H](NC(=O)[C@H](CCCCN)NC(=O)[C@H](CCCNC(=N)N)NC(=O)c1ccc(/C=C2\SC(=S)N(c3ccccc3)C2=O)cc1)C(N)=O  West Nile virus             37.8

(1) CCCC[C@H](NC(=O)[C@H](CCCNC(=N)N)NC(=O)[C@H](CCCCN)NC(=O)c1ccc(/C=C2\SC(=O)N(Cc3ccccc3)C2=O)cc1)C(N)=O
(2) CCCC[C@H](NC(=O)[C@H](CCCCN)NC(=O)[C@H](CCCNC(=N)N)NC(=O)c1ccc(/C=C2\SC(=S)N(C)C2=O)cc1)C(N)=O
(3) CCCC[C@H](NC(=O)[C@H](CCCCN)NC(=O)[C@H](CCCNC(=N)N)NC(=O)/C=C1\SC(=S)N(Cc2ccc(OC)cc2)C1=O)C(N)=O
(4) CCCC[C@H](NC(=O)[C@H](CCCCN)NC(=O)[C@H](CCCNC(=N)N)NC(=O)c1ccc(/C=C2\SC(=S)N(C3CCCC3)C2=O)cc1)C(N)=O
(5) CCCC[C@H](NC(=O)[C@H](CCCCN)NC(=O)[C@H](CCCNC(=N)N)NC(=O)c1ccc(/C=C2\SC(=S)N(CCOC(C)=O)C2=O)cc1)C(N)=O
Would you mind ranking these compounds by ascending inhibition? Enter labels, ranked according to the request.
3, 5, 2, 1, 4
(3: 15.3%, 5: 22.4%, 2: 35%, 1: 60.9%, 4: 97.7%)

(a) CCCC[C@H](NC(=O)[C@H](CCCNC(=N)N)NC(=O)[C@H](CCCNC(=N)N)NC(=O)c1ccc(/C=C2\SC(=O)N(Cc3ccccc3)C2=O)cc1)C(N)=O
(b) CCCC[C@H](NC(=O)[C@H](CCCN)NC(=O)[C@H](CCCNC(=N)N)NC(=O)c1ccc(/C=C2\SC(=O)N(Cc3ccccc3)C2=O)cc1)C(N)=O
# argmax over inhibition for candidates a and b Please respond with the label that marks your chosen entry.
a
(a: 74%, b: 45%)

(a) CCCC[C@H](NC(=O)[C@H](CCCCN)NC(=O)[C@H](CCCNC(=N)N)NC(=O)c1ccc(/C=C2\SC(=O)N(Cc3ccc(Cl)cc3)C2=O)cc1)C(N)=O
(b) CCCC[C@H](NC(=O)[C@H](CCCCN)NC(=O)[C@H](CCCNC(=N)N)NC(=O)c1ccc(/C=C2\SC(=O)N(C3CCCCC3)C2=O)cc1)C(N)=O
I would appreciate it if you could say which entry, a or b , has the lower inhibition value. Please respond with the label that marks your chosen entry.
b

###

Test system: West Nile virus
Assay: Inhibition of West Nile virus NS2B-NS3 protease expressed in Escherichia coli BL 21 (DE3) using Abz-Gly-Leu-Lys-Arg-Gly-Gly-3-(NO2)Tyr as substrate at 50 uM after 15 mins
MEASUREMENT_NAME: inhibition (%)

COMPOUND	MEASUREMENT_NAME	MEASURED_RESULT
CCCC[C@H](NC(=O)[C@H](CCCCN)NC(=O)[C@H](CCCCN)NC(=O)c1ccc(/C=C2\SC(=O)N(Cc3ccccc3)C2=O)cc1)C(N)=O	inhibition	36.9
CCCC[C@H](NC(=O)[C@H](CCCCN)NC(=O)[C@H](CCCNC(=N)N)NC(=O)c1ccc(/C=C2\SC(=S)N(C3CCCCC3)C2=O)cc1)C(N)=O	inhibition	96.9
CCCC[C@H](NC(=O)[C@H](CCCCN)NC(=O)[C@H](CCCNC(=N)N)NC(=O)c1ccc(/C=C2\SC(=S)N(CCCC)C2=O)cc1)C(N)=O	inhibition	64.7
CCCC[C@H](NC(=O)[C@H](CCCCN)NC(=O)[C@H](CCCNC(=N)N)NC(=O)c1ccc(/C=C2\SC(=O)N(C)C2=O)cc1)C(N)=O	inhibition	38.1
CCCC[C@H](NC(=O)[C@H](CCCCN)NC(=O)[C@H](CCCNC(=N)N)NC(=O)c1ccc(/C=C2\SC(=O)N(Cc3ccc(C)cc3)C2=O)cc1)C(N)=O	inhibition	66.7
CCCC[C@H](NC(=O)[C@H](CCCCN)NC(=O)[C@H](CCCNC(=N)N)NC(=O)c1ccc(/C=C2\SC(=S)N(CCO)C2=O)cc1)C(N)=O	inhibition	28.4

(I) N=C(N)NCCC[C@H](NC(=O)c1ccc(/C=C2\SC(=O)N(Cc3ccccc3)C2=O)cc1)C(N)=O
(II) CCCC[C@H](NC(=O)[C@H](CCCCN)NC(=O)[C@H](CCCNC(=N)N)NC(=O)c1ccc(/C=C2\SC(=S)N(Cc3ccc(F)cc3)C2=O)cc1)C(N)=O
# argmax over inhibition for candidates I and II Please respond with the label that marks your chosen entry.
II

(A) CCCC[C@H](NC(=O)[C@H](CCCCN)NC(=O)[C@H](CCCNC(=N)N)NC(=O)CN1C(=O)/C(=C/c2ccc(OC)c(OC)c2)SC1=S)C(N)=O
(B) CCCCC(C(=O)OC)N1C(=O)/C(=C/c2ccc(C(=O)N[C@@H](CCCNC(=N)N)C(=O)N[C@@H](CCCCN)C(=O)N[C@@H](CCCC)C(N)=O)cc2)SC1=S (stereo partly drawn)
I would appreciate it if you could say which entry, A or B , has the lower inhibition value. Please respond with the label that marks your chosen entry.
A
(A: 30.2%, B: 94.2%)

###

Tested on: West Nile virus
Experiment: Inhibition of West Nile virus NS2B-NS3 protease expressed in Escherichia coli BL 21 (DE3) using Abz-Gly-Leu-Lys-Arg-Gly-Gly-3-(NO2)Tyr as substrate at 50 uM after 15 mins
MEASUREMENT_NAME: inhibition

Item under review: CCCC[C@H](NC(=O)[C@H](CCCCN)NC(=O)[C@H](CCCNC(=N)N)NC(=O)c1ccc(/C=C2\SC(=O)N(CCO)C2=O)cc1)C(N)=O . Reported inhibition?
26.5%

Item under review: CCCC[C@H](NC(=O)[C@H](CCCCN)NC(=O)[C@H](CCCNC(=N)N)NC(=O)c1ccc(/C=C2\SC(=O)NC2=O)cc1)C(N)=O . Reported inhibition?
27%

Item under review: CCCC[C@H](NC(=O)[C@H](CCCCN)NC(=O)[C@H](CCCNC(=N)N)NC(=O)c1ccc(/C=C2\SC(=O)N(Cc3ccc(F)cc3)C2=O)cc1)C(N)=O . Reported inhibition?
63.7%

Item under review: CCCC[C@H](NC(=O)[C@H](CCCCN)NC(=O)[C@H](CCCNC(=N)N)NC(=O)c1ccc(/C=C2\SC(=O)N(C(C)C)C2=O)cc1)C(N)=O . Reported inhibition?
30.9%

Item under review: CCCC[C@H](NC(=O)[C@H](CCCCN)NC(=O)[C@H](CCCNC(=N)N)NC(=O)c1cccc(/C=C2\SC(=O)N(C3CCCC3)C2=O)c1)C(N)=O . Reported inhibition?
52.9%
